# Species: Homo sapiens
# Assay Details: Selectivity for human factor 10a over human trypsin
# maps each entry to its Selectivity ratio
Measured Endpoint: Selectivity ratio

# Molecule Smiles, Test Result
measured = [
    ("COc1ccc(OC)c(S(=O)(=O)N2CCC(N(Cc3ccc4ccc(C(=N)N)cc4c3)S(=O)(=O)CC(=O)O)CC2)c1", "> 100"),
    ("CS(=O)(=O)N(Cc1ccc2ccc(C(=N)N)cc2c1)C1CCN(Cc2cccc(C#N)c2)CC1", "> 100"),
    ("CS(=O)(=O)N(Cc1ccc2ccc(C(=N)N)cc2c1)C1CCN(C(=O)c2cccc(Cl)c2)CC1", "> 100"),
    ("CS(=O)(=O)N(Cc1ccc2ccc(C(=N)N)cc2c1)C1CCN(Cc2cccc(Cl)c2)CC1", "> 100"),
    ("CCOC(=O)CS(=O)(=O)N(C/C=C/c1cccc(/C(N)=N\\O)c1)C1CCN(S(=O)(=O)c2cc(OC)ccc2OC)CC1", "> 100"),
    ("COc1ccc(OC)c(S(=O)(=O)N2CCC(N(C/C=C/c3cccc(C(=N)N)c3)C(=O)CC(=O)O)CC2)c1", "> 100"),
    ("CCOC(=O)CC(=O)N(C/C=C/c1cccc(/C(N)=N\\O)c1)C1CCN(S(=O)(=O)c2cc(OC)ccc2OC)CC1", "> 100"),
    ("CS(=O)(=O)N(Cc1ccc2ccc(C(=N)N)cc2c1)C1CCN(C(=O)c2cccc(C#N)c2)CC1", "> 100"),
]

###

# Measured Target: Coagulation factor X (Homo sapiens, UniProt P00742)
# Sequence (P00742 41-179 limits assumed): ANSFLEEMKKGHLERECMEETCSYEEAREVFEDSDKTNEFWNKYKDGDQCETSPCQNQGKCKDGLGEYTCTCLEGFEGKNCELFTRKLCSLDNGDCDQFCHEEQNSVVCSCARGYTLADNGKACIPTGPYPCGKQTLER
# Sequence (P00742 235-488 limits assumed): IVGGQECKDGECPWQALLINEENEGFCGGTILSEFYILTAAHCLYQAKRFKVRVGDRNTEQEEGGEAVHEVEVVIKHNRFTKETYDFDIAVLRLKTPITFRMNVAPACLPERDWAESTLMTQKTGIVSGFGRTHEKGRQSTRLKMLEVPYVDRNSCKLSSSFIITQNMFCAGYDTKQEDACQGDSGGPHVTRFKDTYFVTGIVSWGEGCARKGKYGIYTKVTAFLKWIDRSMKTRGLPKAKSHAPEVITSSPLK

# Molecule Smiles, Measured Target, Bound Operator, IC50, nM
data = [
    ("CS(=O)(=O)N(Cc1ccc2ccc(C(=N)N)cc2c1)C1CCN(c2ccncc2)CC1", "Coagulation factor X (Homo sapiens, UniProt P00742)", "=", 90),
    ("CS(=O)(=O)N(Cc1ccc2ccc(C(=N)N)cc2c1)C1CCN(Cc2cccc(Cl)c2)CC1", "Coagulation factor X (Homo sapiens, UniProt P00742)", "=", 1700),
    ("CS(=O)(=O)N(Cc1ccc2ccc(C(=N)N)cc2c1)C1CCN(S(=O)(=O)c2ccc(Cl)cc2)CC1", "Coagulation factor X (Homo sapiens, UniProt P00742)", "=", 1600),
    ("CS(=O)(=O)N1CCC(N(Cc2ccc3ccc(C(=N)N)cc3c2)S(C)(=O)=O)CC1", "Coagulation factor X (Homo sapiens, UniProt P00742)", ">", 100000),
    ("COc1ccc(OC)c(S(=O)(=O)N2CCC(N(Cc3ccc4ccc(C(=N)N)cc4c3)C(C)=O)CC2)c1", "Coagulation factor X (Homo sapiens, UniProt P00742)", "=", 12),
    ("COc1ccc(OC)c(S(=O)(=O)N2CCC(N(C/C=C/c3cccc(C(=N)N)c3)S(=O)(=O)CC(=O)O)CC2)c1", "Coagulation factor X (Homo sapiens, UniProt P00742)", "=", 10),
    ("COc1ccc(OC)c(S(=O)(=O)N2CCC(N(C)Cc3ccc4ccc(C(=N)N)cc4c3)CC2)c1", "Coagulation factor X (Homo sapiens, UniProt P00742)", "=", 590),
    ("CS(=O)(=O)N(Cc1ccc2ccc(C(=N)N)cc2c1)C1CCN(S(=O)(=O)c2ccc(Cl)c(Cl)c2)CC1", "Coagulation factor X (Homo sapiens, UniProt P00742)", "=", 190),
]
